Assay Details: Human HepG2 cell viability assay in 384 well format
Type: toxicity, cell-based
Set-up: dose 125 nL, time 70.5 hour; concentration not given beside the values
Test Conditions: HepG2 cells, read-out: Inhibition
Value Kind: cytotoxicity at 70.5 h

Solved cases (4 shown):
CC(CO)NC(=O)Nc1ccc(S(C)(=O)=O)nc1 (stereo not drawn)	-2.27%
Cc1cc(CNC(=O)c2cccs2)ccc1S(C)(=O)=O	-3.96%
O=C(NC1CCN(c2ncccn2)CC1)c1sccc1C1CC1	-5.49%
Cc1cn2c(n1)CCC(NC(=O)c1ccc(OCC3CC3)nc1)C2 (stereo not drawn)	-3.71%

Can you share its cytotoxicity at 70.5 h? I mean this compound: `O=C(Cc1c[nH]c2ccccc12)N1CCC(Nc2ccccc2)CC1`
-3.37%

Then Cc1noc(C2CCCN(CC(=O)N3CCc4ccccc4C3)C2)n1 (stereo not drawn) ?
-1.69%

Next record, please: `Cn1ccnc1CN1CCN2C[C@H](OCc3ccccc3)C[C@H]2C1`
-1.75%

Recorded values, source ChEMBL document CHEMBL3507680.
